# target-system: Bcl-2 protein (histag-Bcl-2, UniProtKB P10415) (Homo sapiens (Human), UniProt P10415)
# Sequence (P10415 whole entry): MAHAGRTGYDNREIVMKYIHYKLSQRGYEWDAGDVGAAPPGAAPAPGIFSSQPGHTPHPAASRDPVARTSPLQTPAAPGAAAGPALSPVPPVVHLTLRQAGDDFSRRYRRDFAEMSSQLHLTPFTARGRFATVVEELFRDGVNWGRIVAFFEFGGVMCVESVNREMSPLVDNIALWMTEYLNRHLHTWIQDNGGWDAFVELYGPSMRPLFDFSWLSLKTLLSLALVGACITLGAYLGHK
# measurement-protocol: Inhibition of Bcl-2 by the fluorescence polarisation technique
# Format: binding
# test-parameters: fluorescence polarisation test; method A, or method B where underlined (underlining not visible); read-out: IC50 (nM) Bcl-2 FP
Where a name gives a salt, the structure may show the parent alone.
observation-type: IC50 (nM)
Express your answer in nM, writing the number without its unit.

Look over these answered cases.
molecule	IC50 (nM)
CN1CCN(C[C@@H]2Cc3ccccc3CN2C(=O)c2ccc(Cl)cc2-n2cc(C(=O)N(c3ccc(O)cc3)c3ccc4c(ccn4C)c3)c3ccccc32)CC1	3.3
Cc1cc(C(=O)N(c2ccc(O)cc2)c2ccc3[nH]ccc3c2)cn1-c1cc2c(cc1C(=O)N1Cc3ccccc3C[C@H]1CN1CCN(C)CC1)OCO2	4.4
Cc1cc(C(=O)N(c2ccccc2)c2ccc(O)cc2)cn1-c1cc(Br)ccc1C(=O)N1Cc2ccccc2C[C@H]1CN1CCN(C)CC1	10.7
O=C(c1cn(-c2ccccc2C(=O)N2Cc3ccccc3C[C@H]2CN2CCCCC2)c2ccccc12)N(c1ccccc1)c1ccc(O)cc1	168
NC[C@@H]1Cc2ccccc2CN1C(=O)c1ccccc1-n1cc(C(=O)N(c2ccccc2)c2ccccc2)c2ccccc21	90
COc1cc(-n2cc(C(=O)N(c3ccccc3)c3ccc(O)cc3)c3ccccc32)c(C(=O)N2Cc3ccccc3C[C@H]2CN2CCN(C)CC2)cc1O [Example 165, dihydrochloride]	3.2
CN1CCN(C[C@@H]2Cc3ccccc3CN2C(=O)c2cc3c(cc2-n2cc(C(=O)N(c4ccc(O)cc4)c4ccc(Cl)cc4)c4ccccc42)OCO3)CC1	5.5
Cc1cc(C(=O)N(c2ccc(O)cc2)c2ccc3c(ccn3C)c2)cn1-c1cc2c(cc1C(=O)N1Cc3ccccc3C[C@H]1CN1CCCC1)OCO2 [Example 105, hydrochloride]	13.6
Cc1cc(C(=O)N(c2ccc(O)cc2)c2ccc3c(c2)CN(C)C3)cn1-c1cc2c(cc1C(=O)N1Cc3ccccc3C[C@H]1C)OCO2 [Example 114, hydrochloride]	23.7
Cc1cc(C(=O)N(c2ccccc2)c2ccc(O)cc2)cn1-c1cc(O)ccc1C(=O)N1Cc2ccccc2C[C@H]1CN1CCOCC1	22.1

q: // lookup IC50 | system=Bcl-2 protein (histag-Bcl-2, UniProtKB P10415) (Homo sapiens (Human), UniProt P10415) | key= Cc1cc(C(=O)N(c2ccccc2)c2ccccc2)cn1-c1cc(O)ccc1C(=O)N1Cc2ccccc2C[C@H]1CN
a: 50.5

q: // lookup IC50 | system=Bcl-2 protein (histag-Bcl-2, UniProtKB P10415) (Homo sapiens (Human), UniProt P10415) | key= Cc1cc(C(=O)N(c2ccccc2)c2ccc(O)cc2)cn1-c1cc(Br)ccc1C(=O)N1Cc2ccccc2C[C@H]1CN1CCOCC1
a: 23.1

q: // lookup IC50 | system=Bcl-2 protein (histag-Bcl-2, UniProtKB P10415) (Homo sapiens (Human), UniProt P10415) | key= CN1CCN(C[C@@H]2Cc3ccccc3CN2C(=O)c2ccc(Br)cc2-n2cc(C(=O)N(c3ccc(O)cc3)c3ccc4[nH]ccc4c3)c3ccccc32)CC1
a: 10.5
